Answer each item with its documented mass density.
conditions: 308.15 K; 101.33 kPa; Liquid; Vibrating tube method
Write it as a number; the unit kg/m3 goes unstated.

Enquiry: Name the reported mass density value associated with the compound CCNC=O [N-ethylformamide]
Return: 939.04

Enquiry: Record: C1CCOCC1 [tetrahydropyran]
Return: 868.67

Enquiry: // same read-out, input: CCCOC(C)=O [propyl ethanoate]
Return: 870.81

Enquiry: Another compound: CCCC(C)=O
Return: 792.52

* * *

settings: 313.15 K; 101.33 kPa; Liquid; Vibrating tube method
observable: mass density (kg/m3)
Record the value in kg/m3, omitting the unit from your answer.

Enquiry: // lookup mass density for CCNC=O [N-ethylformamide]
Return: 934.78

Enquiry: Now consider C1CCOCC1 [tetrahydropyran] and answer again.
Return: 863.43

Enquiry: Lookup CCCOC(C)=O [propyl ethanoate]
Return: 864.95

Enquiry: Also CCCC(C)=O [pentan-2-one] , if possible.
Return: 787.44
